The reported numbers originate from paper PMC7619385.

# ΔTm Run 1 per record follows
biological target: LmxCLK1 (Leishmania mexicana); test: biochemical; format: binding; conditions: DSF, 10 µM compound, 2 µM LmxCLK1, Run 1

{"compound": "Cc1[nH]c(/C=C2\\C(=O)Nc3ccccc32)c(C)c1CCC(=O)O [TSU-68 (SU6668)]", "ΔTm Run 1, °C": 0.1}
{"compound": "O=c1cc(CN2CCOCC2)occ1OCCCCCSc1ccnc2cc(C(F)(F)F)ccc12", "ΔTm Run 1, °C": 0.1}
{"compound": "COc1cc2nccc(Oc3ccc(NC(=O)C4(C(=O)Nc5ccc(F)cc5)CC4)cc3)c2cc1OC.O=C(O)C[C@H](O)C(=O)O [Cabozantinib malate (XL184)]", "ΔTm Run 1, °C": 0.1}

----------
target: LmxCLK1 (Leishmania mexicana, UniProt E9AMP2); assay: biochemical; assay type: binding
Sequence (E9AMP2 1-422): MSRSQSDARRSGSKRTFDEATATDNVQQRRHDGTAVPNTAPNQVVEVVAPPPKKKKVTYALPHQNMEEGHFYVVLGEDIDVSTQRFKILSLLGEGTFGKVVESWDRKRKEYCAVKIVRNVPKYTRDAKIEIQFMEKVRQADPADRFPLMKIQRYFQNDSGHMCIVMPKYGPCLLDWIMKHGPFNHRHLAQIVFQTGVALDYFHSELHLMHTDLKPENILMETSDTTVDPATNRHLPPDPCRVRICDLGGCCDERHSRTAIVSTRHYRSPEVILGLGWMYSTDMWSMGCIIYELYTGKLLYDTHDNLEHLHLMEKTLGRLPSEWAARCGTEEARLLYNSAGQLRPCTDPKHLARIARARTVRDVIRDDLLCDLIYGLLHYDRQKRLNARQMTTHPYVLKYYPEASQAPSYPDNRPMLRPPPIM
endpoint: ΔTm Run 2

{"compound": "O=C(NCCO)c1cccc(-c2cc(Nc3ccc(OC(F)(F)F)cc3)ncn2)c1", "result": -0.3}
{"compound": "C[C@@H]1COCCN1c1cc(C2(S(C)(=O)=O)CC2)nc(-c2cccc3[nH]ccc23)n1", "result": -0.5}
{"compound": "Nc1nc(N)c2nc(-c3cccc(O)c3)cnc2n1", "result": -0.2}
{"compound": "CNC(=O)c1c(F)cccc1Nc1nc(Nc2cc3c(cc2OC)CCN3C(=O)CN(C)C)nc2[nH]ccc12 [GSK1838705A]", "result": -0.3}
{"compound": "CN(c1ncccc1CNc1nc(Nc2ccc3c(c2)CC(=O)N3)ncc1C(F)(F)F)S(C)(=O)=O", "result": -0.3}
{"compound": "CCOc1cc(N2CCC(O)CC2)ccc1Nc1ncc2c(n1)N(C)c1ccccc1C(=O)N2C", "result": -0.5}
{"compound": "CN(C)Cc1cccc(N/C(=C2\\C(=O)Nc3cc(C(=O)N(C)C)ccc32)c2ccccc2)c1", "result": -0.4}
{"compound": "Cc1[nH]c2ccccc2c1C1=C(NCCc2ccc(F)cc2)C(=O)N(C)C1=O", "result": -0.3}
{"compound": "O=C1NC(=O)/C(=C/c2cccc(C(F)(F)F)c2)S1", "result": -0.1}
{"compound": "Cn1cc(-c2ccc3nnc(C(F)(F)c4ccc5ncccc5c4)n3n2)cn1", "result": -0.4}
{"compound": "CNc1nc(Nc2cnn([C@H]3CCN(C4COC4)C[C@@H]3F)c2Cl)ncc1C(F)(F)F", "result": -0.5}
{"compound": "COc1c(C)c(C(=O)c2ccc(N)c(C(=O)[O-])c2)n2ccccc12.[Na+] [SSR128129E]", "result": -0.1}
{"compound": "NC(=O)c1cccc(-c2cc(Nc3ccc(OC(F)(F)F)cc3)ncn2)c1", "result": -0.3}
{"compound": "COc1ccc(N(C(=O)Oc2c(C)cccc2C)c2ccnc(Nc3ccc(N4CCN(C)CC4)cc3)n2)c(OC)c1", "result": -0.2}
{"compound": "CN(C)CCSSCCNC(=O)C1CCN(C(=O)CSc2ccc(Cl)cc2)CC1", "result": -0.2}
{"compound": "COc1ccc(F)c(F)c1C(=O)c1cnc(NC2CCN(S(C)(=O)=O)CC2)nc1N", "result": -0.4}
{"compound": "Cc1ccc(-c2nn(C(C)(C)C)c3ncnc(N)c23)cc1", "result": -0.2}
{"compound": "CN([C@@H](Cc1ccc(OS(=O)(=O)c2cccc3cnccc23)cc1)C(=O)N1CCN(c2ccccc2)CC1)S(=O)(=O)c1cccc2cnccc12", "result": -0.2}
